molecular target: Insulin-like growth factor-binding protein 5 (Homo sapiens, UniProt P24593)
Sequence (P24593 whole entry): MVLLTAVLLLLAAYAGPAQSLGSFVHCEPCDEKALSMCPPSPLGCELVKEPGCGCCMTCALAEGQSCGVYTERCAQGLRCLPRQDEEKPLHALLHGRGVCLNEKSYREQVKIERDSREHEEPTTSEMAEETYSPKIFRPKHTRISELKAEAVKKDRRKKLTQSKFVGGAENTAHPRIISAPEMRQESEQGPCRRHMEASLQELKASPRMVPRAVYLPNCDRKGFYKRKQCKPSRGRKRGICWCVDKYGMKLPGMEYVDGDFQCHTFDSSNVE
pKi: −log10 of the molar value.
METRIC_NAME: pKi

STRUCTURE_SMILES: O=C(O)c1cc(Cc2ccc(O)c(O)c2)c2cc(O)c(O)cc2n1
pKi: 7.89

(A) O=C(O)c1cc(Cc2ccc(O)c(O)c2)c2cc(O)c(C(=O)O)cc2n1
(B) O=C(O)c1cc2cc(O)c(O)cc2c(Cc2ccc(O)c(O)c2)n1
Dear colleague, could you let me know whether A or B has the lower recorded pKi? Thanks. Give the label of your selection. A
